tested on: SF-539; experiment: NCI tumour cell line growth inhibition, 48 h
Active and inactive are the calls of the source. Cut-off read from the data, not from the text of the source: active = GI50 up to about 1.1 µM and inactive = higher.
Response enum: label 1 for active, label 0 for inactive

Use these answered entries as a reference point.
{"COMPOUND": "Cc1ccc([N+](=O)[O-])c2c(NCCNC(=O)Cn3ccnc3[N+](=O)[O-])ccnc12", "CLASS LABEL": "label 0"}
{"COMPOUND": "NC(=O)C(=Cc1ccc(CP(=O)(O)O)cc1)C(N)=O", "CLASS LABEL": "label 0"}
{"COMPOUND": "O=c1cc[nH]c(=O)[nH]1", "CLASS LABEL": "label 0"}
{"COMPOUND": "O=C1CC2(C[C@@H]3CCCCCCCCC[C@@H](C3)C2)N1 (some centres not stated)", "CLASS LABEL": "label 0"}
{"COMPOUND": "CCOC(=O)Nc1cc2c(c(N)n1)N=C(c1ccccc1)CN2", "CLASS LABEL": "label 1"}

Lookup: Give the logged outcome of this assay for the following compound: Cc1ccc(S(=O)(=O)ON/N=C2/C3OC3[C@@H]3CCCC[C@H]23)cc1 (some centres not stated)
Found: label 0

Lookup: Give the logged outcome of this assay for the following compound: O=C(O)/C=C/n1c2ccccc2c(=O)c2ccccc21
Found: label 0

Lookup: Give the logged outcome of this assay for the following compound: CN1C2CCC1C(CO)C(=O)C2 (configuration not stated)
Found: label 0

----------
tested on: RXF 393; experiment: NCI tumour cell line growth inhibition, 48 h
Active and inactive are the calls of the source. Rule as the data show it: active = GI50 up to about 1.1 µM and inactive = higher.
Response enum: label 1 = active, label 0 = inactive

Use these answered entries as a reference point.
{"COMPOUND": "Cc1ccc(CC(=O)Nc2ccc(NC(=O)CNC(=O)/C=C/c3ccc(-c4ccccc4)cc3)cc2C(=O)c2ccccc2)cc1", "CLASS LABEL": "label 0"}
{"COMPOUND": "COC(=O)C(=O)C(C#N)c1cccc(Cl)c1 (stereo unspecified)", "CLASS LABEL": "label 0"}
{"COMPOUND": "CCN(CC)CCNc1nc(N)c(C#N)c(C#N)c1C#N", "CLASS LABEL": "label 0"}
{"COMPOUND": "Cn1c2c(c3ccccc31)CCN1C(=O)C3SC21C1C(=O)N(c2ccccc2)C(=O)C31 (stereo unspecified)", "CLASS LABEL": "label 0"}
{"COMPOUND": "CC(C)(C)c1cc(C(=O)/C=C/c2ccc3c(c2)CCO3)cc(C(C)(C)C)c1O", "CLASS LABEL": "label 1"}

Now examine the next entry.
Lookup: Give the logged outcome of this assay for the following compound: Cc1c(O)c(=O)ccn1CCO
Found: label 0

----------
test system: NCI-H23; assay: NCI tumour cell line growth inhibition, 48 h
Active and inactive are the calls of the source. Rule as the data show it: active = GI50 up to about 1.1 µM and inactive = higher.
Response enum: active, inactive

Use these answered entries as a reference point.
{"MOLECULE": "O=C1CSC(c2ccc(Cl)cc2)N1c1ccc(-n2c(-c3ccccc3)nc3ccccc3c2=O)cc1 (stereo not given)", "CLASS LABEL": "inactive"}
{"MOLECULE": "C[C@@H]([C@H]1CC[C@@]2(C)[C@@H]3CC[C@@H]4C(=CC3=CC[C@]12C)CC[C@H](N(C)C)C4(C)C)N(C)C", "CLASS LABEL": "inactive"}
{"MOLECULE": "COc1cc(/C=C2\\CC3C4CC[C@H]5C[C@@H](O)CC[C@]5(C)C4CC[C@]3(C)\\C2=N\\O)cc(OC)c1OC (stereo not given in full)", "CLASS LABEL": "inactive"}
{"MOLECULE": "CC(=O)OI1NC(=O)c2ccccc21", "CLASS LABEL": "inactive"}
{"MOLECULE": "Cc1c2ccncc2c(C)c2c1[nH]c1ccc(Oc3ccccc3)cc12", "CLASS LABEL": "inactive"}
{"MOLECULE": "Cc1cc(C)nc(NS(=O)(=O)c2ccc(Nc3c4ccccc4nc4c(C(=O)N5CCN(CCO)CC5)cccc34)cc2)n1", "CLASS LABEL": "inactive"}
{"MOLECULE": "COC(=O)/C=C/c1ccc2nncnc2c1.COC(=O)/C=C\\c1ccc2nncnc2c1", "CLASS LABEL": "inactive"}
{"MOLECULE": "CN(C)c1nc(N(C)C)nc(N(C)CN(C)c2nc(N(C)C)nc(N(C)C)n2)n1", "CLASS LABEL": "inactive"}

Lookup: Give the logged outcome of this assay for the following molecule: Nc1ccc(C2=Nc3ccccc3SC(c3ccccc3O)C2)cc1 (stereo not given)
Found: inactive

Lookup: Give the logged outcome of this assay for the following molecule: CSc1ncnc2c1ncn2C1OC(CO)C(O)OC1O (stereo not given)
Found: active
